Reported protein stability index values follow for various variants
B1: SERPINB5 (parent)
chain: FPESETKECPFRVNKVCGAACSSK

variants of: B1; assay: protein stability index of a GFP-peptide fusion (GPS, HEK-293T) (PSI 1-6); higher = more stable; settings: c terminus: a fixed tail appended;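 note: lentivirally expressed fusions sorted by FACS into six bins by GFP to DsRed ratio, PSI derived from sequencing read proportions per bin multiplied by bin number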
The answer should be a number; do not append a unit.

1) S23M	2.39
2) A20P	2.49
3) S23K	2.97
4) V13P	3.02
5) C9R	4.34
6) K24Q	2.45
7) E8T	2.6
8) V16D	2.89

The variant listed as S22T shows protein stability index equal to 2.39

So, G18T ? Its protein stability index was 2.35
